TEST CONTEXT: buffer; pH 7.4; 200.0 µM
ASSAY ENDPOINT: solubility kinetic

Reported solubility kinetic of `O=C(CSc1nncs1)NCc1ccc(F)cc1` : > 0.0425 mg/mL

Item: `O=C(COc1ccc(Cl)cc1)Nc1ccc2oc(=O)ccc2c1` | solubility kinetic: < 0.0007 mg/mL

====

TEST CONTEXT: buffer; pH 7.4; 200.0 µM
ASSAY ENDPOINT: solubility kinetic

Look over these answered cases.
COC(=O)C(=CC(=CN(C)C)C=C(C(=O)OC)C(=O)OC)C(=O)OC; > 53.3 µg/mL
O=S(=O)(CCN1CCOCC1)c1ccc(OC(F)(F)F)cc1; > 50.9 µg/mL
CCCC(=O)NC(c1ccccc1)c1c(O)ccc2ccccc12 (configuration not stated); < 0.7 µg/mL
Cc1nc(SCC(=O)Nc2ccccc2Cl)oc1C; > 44.5 µg/mL
CC(C)N1CC(C(=O)Nc2ccc(C#N)cc2)CC1=O (configuration not stated); > 40.7 µg/mL

Memo: `O=C(CNC(=O)c1cccnc1)N/N=C/c1ccc(O)cc1O` , reported solubility kinetic: > 47.1 µg/mL

The compound identified as `COc1ccc(C)cc1NC(=S)NN1CCN(C)CC1` registered its solubility kinetic at > 44.2 µg/mL

Entry `Cc1ccc(S(=O)(=O)NCc2ccccn2)cc1C` ; solubility kinetic = > 41.5 µg/mL

Just so you know, measured solubility kinetic for CCC1CN(C(=O)NCc2ccccc2)c2cc(Cl)ccc2O1 (configuration not stated) came out at < 0.4 µg/mL

compound `O=c1c([N+](=O)[O-])cccn1Cc1ccccc1Cl` , solubility kinetic observed: > 39.7 µg/mL

====

TEST CONTEXT: buffer; pH 7.4; 200.0 µM
Attribute: solubility kinetic

Cc1cccc(/C=N/NC(=O)c2cc(C)nc3ccccc23)n1; > 45.7 µg/mL

Given item `Cc1ccc(C)c(NC(=O)CN(C)C(=O)/C=C/c2ccco2)c1` , the value recorded as its solubility kinetic is > 46.9 µg/mL

Record summary for `Cc1[nH]c(SCC(=O)c2c(N)n(C)c(=O)n(C)c2=O)nc1Cc1ccccc1` : reported solubility kinetic = > 59.9 µg/mL

Summary for this compound, CC(C)CC(NC(=O)OC(C)(C)C)C(=O)O.O (stereo not drawn) : solubility kinetic is > 37.4 µg/mL

So, `Cc1ccc(C(=O)Nc2ccc3c(c2)OCCO3)c(C)c1` ? Its solubility kinetic was > 42.5 µg/mL

What the record says about `Cc1ccc(C(=O)N=c2sccn2C)cc1C` : solubility kinetic is 10 µg/mL

The recorded solubility kinetic for entry `O=[N+]([O-])c1cccc(-c2nc(-c3ccccn3)no2)c1` equals 6.4 µg/mL

For this compound ( `O=C(O)c1ccc(COc2ccc([N+](=O)[O-])cc2)o1` ), measured solubility kinetic is > 39.5 µg/mL

// recorded solubility kinetic for `CC(C)OC(=O)c1ccc2nc3ccccc3nc2c1` : 1 µg/mL

Field solubility kinetic (entry `O=C(c1ccccc1)N1CCn2c1nc1ccccc12` ) reads 9.2 µg/mL

Entry under test: `CC12CC3(C)CC(C)(C1)CC(C(N)=O)(C2)C3` . Its solubility kinetic was 31 µg/mL

====

Listing: solubility kinetic of selected molecules
TEST CONTEXT: buffer; pH 7.4; 200.0 µM

Illustrative cases are given below, each with its answer.
O=C1CSC(=Nc2ccc(O)cc2)N1; > 31.2 µg/mL
CCOc1ccc(C(=O)NNC(=O)CN2C(=O)C3CC=CCC3C2=O)cc1OC (centres undefined); > 60.2 µg/mL
CC1CCCCC1NC(=O)NC(=O)COC(=O)c1nccnc1N (centres undefined); > 50.3 µg/mL

# solubility kinetic (molecule: `COC(=O)Cn1c(Cc2ccccc2)nc2ccccc21` ) is > 42 µg/mL

====

TEST CONTEXT: buffer; pH 7.4; 200.0 µM
ASSAY ENDPOINT: solubility kinetic

// known answers, use as guide
Cc1ccc(C(=O)N2C(=O)C(c3ccccc3)Oc3ccccc32)cc1 (stereo unspecified); < 0.7 µg/mL
Cc1c(C)n(-c2ccccc2)c2ncnc(NCCCN(C)C)c12; > 48.5 µg/mL
Cc1cc(C)nc(SCc2cn3ccccc3n2)n1; > 40.6 µg/mL
CCc1nc2oc3ccc(C)cc3c(=O)c2cc1C(=O)OC; < 0.6 µg/mL
COc1ccc(C(=O)OCC(=O)NC2CCCC2)cc1OC; > 46.1 µg/mL

# ---- query molecule ----
response.value for `c1cnc(-c2noc(CN3CCN(C4CCCC4)CC3)n2)cn1` (field: solubility kinetic) = > 47.2 µg/mL

====

TEST CONTEXT: buffer; pH 7.4; 200.0 µM
ASSAY ENDPOINT: solubility kinetic (µg/mL)
Report the figure in µg/mL without appending any unit label.

COCCCNC(=O)c1cc2cc(Br)ccc2oc1=O; 4.4
COc1ccc(Cc2nc(-c3ccncc3)no2)cc1; 35.5

Shifting focus to the compound that follows.
solubility kinetic reading for `COc1ccccc1NC(=O)c1ccccc1Nc1ccccc1` : 0.5

====

Here the recorded solubility kinetic is given for each entry.
TEST CONTEXT: buffer; pH 7.4; 200.0 µM

O=C(COC(=O)c1cnccn1)Nc1ccccc1-c1ccccc1; > 50 µg/mL

Value of measured solubility kinetic for the entry `Cc1cc([N+](=O)[O-])nn1CCCC(=O)NC1CCCCC1` : > 44.2 µg/mL

====

Recorded measurements of solubility kinetic, one per entry
TEST CONTEXT: buffer; pH 7.4; 200.0 µM

// recorded solubility kinetic for `Cc1ccccc1-n1c2nc(=O)n(C)c(=O)c-2cc2ccccc21` : > 47.6 µg/mL

Form field solubility kinetic, entry `Cc1ccc(Nc2nnc(C)c3ccccc23)c(C)c1` : > 39.5 µg/mL

Given item CC(C)CC(NC(N)=O)C(=O)Nc1ccc2c(c1)OCO2 (centres undefined) , the value recorded as its solubility kinetic is > 44 µg/mL

// sample `CCCn1c(=O)[nH]c(=O)c2[nH]cnc21` , its solubility kinetic was > 29.1 µg/mL

====

Property: solubility kinetic; scope: individual compounds
TEST CONTEXT: buffer; pH 7.4; 200.0 µM

CNC1=CC(=O)CC(c2ccccc2)C1 (centres undefined); > 30.2 µg/mL
O=C(O)c1ccccc1-c1ccccc1C(=O)Nc1ccc(OC(F)(F)F)cc1; > 60.2 µg/mL
CN(C)C(=O)c1ccc(=O)n(Cc2ccc(Cl)cc2Cl)c1; > 48.8 µg/mL
CC(C)(Oc1ccc(Cl)cc1)C(=O)NC1CC1; > 38.1 µg/mL
O=C(CCc1ccccc1)Nc1cc2c3c(c1)CC(=O)N3CCC2; > 48.1 µg/mL

Item: `Cc1cc(C)c(N=C2C(=O)Nc3ccccc32)c(C)c1` | solubility kinetic: > 39.6 µg/mL

Data point: `Cc1cc(C)c(C)c(S(=O)(=O)NCCCn2ccnc2)c1C` ; solubility kinetic = 39.8 µg/mL

The compound `Cc1ccc(-c2noc(CCCC(=O)NC3CCCCC3)n2)cc1` showed solubility kinetic equal to 7.8 µg/mL

Summary for this compound, `Cc1ccc(-c2cc(C(=O)N3CCC(C)CC3)c3ccccc3n2)cc1` : solubility kinetic is 6.6 µg/mL

====

TEST CONTEXT: buffer; pH 7.4; 200.0 µM
ASSAY ENDPOINT: solubility kinetic

Sample records with solubility kinetic:
COc1ccc2cc(C(C)C(=O)N3CCC(C(N)=O)CC3)ccc2c1 (stereo unspecified); > 51.1 µg/mL
O=C(CSc1nc(C2CC2)nc2ccccc12)Nc1cccc(O)c1; < 0.3 µg/mL
COC(=O)CCc1nc2ccccc2nc1OC; > 36.9 µg/mL
Cn1c(SCC(=O)N2CCCCCC2)nnc1-c1ccco1; > 48.1 µg/mL
CC(C)CCNc1nc(N)c([N+](=O)[O-])c(NC2CCCCC2)n1; < 0.1 µg/mL

In plain terms, `O=C(Cc1ccc(Cl)c(Cl)c1)Nc1cccnc1` has a documented solubility kinetic of > 42.2 µg/mL

Per the records, this molecule ( `COc1ccc(C(=O)COC(=O)c2cccnc2SC)cc1` ) has solubility kinetic equal to < 0.7 µg/mL

For this molecule ( `COc1ccc(C(=O)Nc2ccc(-c3n[nH]c(=S)o3)cc2)cc1` ), measured solubility kinetic is > 49.1 µg/mL

Query `O=C(CSc1cccc[n+]1[O-])Nc1cc(Cl)ccc1[N+](=O)[O-]` yields solubility kinetic of > 51 µg/mL

solubility kinetic reported for this molecule `COc1cccc2c1CCc1c-2nc2ccccc2c1C(=O)O` : > 45.8 µg/mL

// solubility kinetic value for `CCN(CC)c1nc(-c2ccccc2)nc2c1sc(=S)n2CC` : < 0.2 µg/mL

====

TEST CONTEXT: buffer; pH 7.4; 200.0 µM
ASSAY ENDPOINT: solubility kinetic

As a guide, the following entries are already answered.
CC1(/[N+]([O-])=C\c2ccccc2F)CCCCC1=O (stereo unspecified); > 37.4 µg/mL
O=C(Cn1c(=O)[nH]c2ccccc2c1=O)Nc1cccnc1; > 44.4 µg/mL
O=C(Cc1c[nH]c2ccccc12)NCc1ccco1; > 38.1 µg/mL
CC(=O)Nc1ccc(NC(=O)C(C)OC(=O)C23CC4CC(CC(Cl)(C4)C2)C3)cc1 (stereo unspecified); 61.5 µg/mL
CCCN1C(=O)c2ccc(C(=O)Nc3ccccc3C(=O)O)cc2C1=O; > 52.9 µg/mL
O=C(CSc1ccccn1)Nc1nonc1[N+](=O)[O-]; > 42.2 µg/mL
O=C(c1ccc(F)cc1)c1ccc(OCC(=O)N2CCOCC2)cc1; > 51.5 µg/mL
CCNC(=O)C(=O)Nc1cc2c3c(c1)CCN3C(=O)CC2; > 43.1 µg/mL

For record `CCOC(=O)CN1C(=O)C(=O)N(Cc2c(F)cccc2Cl)C1=O` the listed solubility kinetic is 45.6 µg/mL

Documented solubility kinetic of CC(CCc1ccccc1)NS(=O)(=O)c1ccccc1F (stereo unspecified) : 39 µg/mL

Input `COc1ccc(/C=C/C(=O)OCc2cccc([N+](=O)[O-])c2)cc1` . Output solubility kinetic: < 0.7 µg/mL
